Reference source: ChEMBL document CHEMBL6092124

What Activity was measured for each of the following?
Test system: MCF-10A
Test: Inhibition of MPC in human MCF-10A cells assessed as lactate concentration at 10 uM measured for 36 hrs
Assay type: cell-based
Give bare numbers, in µmol/mL.

{"Smiles Notation": "CCOC(=O)/C(C#N)=C/c1cn(-c2ccccn2)c2ccccc12", "Activity, µmol/mL": 0.625}
{"Smiles Notation": "CCOC(=O)/C(C#N)=C/c1cn(Cc2ccccn2)c2ccccc12", "Activity, µmol/mL": -0.128}
{"Smiles Notation": "Cn1cnc(-n2cc(/C=C(\\C#N)C(=O)O)c3ccccc32)c1", "Activity, µmol/mL": -0.003}
{"Smiles Notation": "CCOC(=O)/C(C#N)=C/c1cn(-c2cncnc2)c2ccccc12", "Activity, µmol/mL": 0.025}

Give Activity for all molecules that follow.
1. CCOC(=O)/C(C#N)=C/c1cn(-c2ncccn2)c2ccccc12
2. CCOC(=O)/C(C#N)=C/c1cn(-c2ccncc2)c2ccccc12
3. N#C/C(=C\c1cn(Cc2ccncc2)c2ccccc12)C(=O)O
4. N#C/C(=C\c1cn(-c2ccccc2)c2ccccc12)C(=O)O
5. N#C/C(=C\c1cn(-c2ccc3ccccc3c2)c2ccccc12)C(=O)O
6. N#C/C(=C\c1cn(Cc2ccc3ccccc3c2)c2ccccc12)C(=O)O
7. N#C/C(=C\c1cn(-c2ccncc2)c2ccccc12)C(=O)O

1. 0.342
2. 0.025
3. -0.337
4. 0.778
5. 0.517
6. 1.23
7. 0.059
